# measurement-notes: NCI Yeast Anticancer Drug Screen. Data for the mec2-1 strain (AID 157)
# applied-conditions: S. cerevisiae mec2-1 strain, at 5.0 µM (retest, dose inferred, filed as 0.5)
This is part of a sample that, as a whole, favours compounds with a hit. Of some 79,000 tested, about 15% had one in any assay. The source made the active and inactive calls. Rule as the data show it: active = growth inhibition above about 70%; inactive = the rest.
Result category, one only: Yes (active), No (inactive)

Test call, this compound: CC(NNC(=S)N1CC2CCC(CC2)C1)c1cc2ccccc2cn1 (stereo not given)
Yes

Dear colleague, could you share the recorded outcome for CNC(=O)OC(C)CN1c2ccccc2Sc2ccc(Cl)cc21 (stereo not given) when you have a moment?
No

// param item: "CC(C)(C)C(=O)CC(=O)C(F)(F)C(F)(F)C(F)(F)F.CC(C)(C)C(=O)CC(=O)C(F)(F)C(F)(F)C(F)(F)F.CC(C)(C)C(=O)CC(=O)C(F)(F)C(F)(F)C(F)(F)F.[Fe]" ; yields the recorded call
No

Please let me know the test result on file for "CCCCCCCCC1CCNCC1" .
No

For "Nc1ccc(-c2nc3ccccc3s2)cc1Br" , which call appears in the assay record?
No
